Provide the recorded Ki hMC1-R/MC4-R for the entries that follow.
# system_tested: T1, hMC1-R (human, UniProt Q01726 1-317)
# T1 construct: whole, on cells; Assayed as membranes of CHO-K1 cells expressing the receptor; also called hMC-R receptor subtype 1; melanocyte-specific receptor (MC1-R)
# run_description: ratio Ki hMC1-R / Ki hMC4-R, same assay
Bridge positions count the residues as written; N and C are the ends. Square brackets hold non-standard residues; d marks the D form. Ends that are not written are not given here. 2Nal = N[C@@H](Cc1ccc2ccccc2c1)C(=O)O; Bta = N[C@@H](Cc1csc2ccccc12)C(=O)O; Pen = CC(C)(S)[C@H](N)C(=O)O; Nle = CCCC[C@H](N)C(=O)O; Ahx = NCCCCCC(=O)O; Ava = NCCCCC(=O)O; GABA = NCCCC(=O)O; βAla = NCCC(=O)O

For Ac-C[dA]H[dF]RWAC-NH2 (disulfide 1-8) [Ac-c(Cys-D-Ala-His-D-Phe-Arg-Trp-Ala-Cys)-NH2] the binder record lists Ki hMC1-R/MC4-R as 2.06

Sure, the documented Ki hMC1-R/MC4-R for Ac-[Nle]CH[dF]R[dW][βAla]C-NH2 (disulfide 2-8; SMILES CCCC[C@H](NC(C)=O)C(=O)N[C@H]1CSSC[C@@H](C(N)=O)NC(=O)CCNC(=O)[C@@H](Cc2c[nH]c3ccccc23)NC(=O)[C@H](CCCNC(=N)N)NC(=O)[C@@H](Cc2ccccc2)NC(=O)[C@H](Cc2c[nH]cn2)NC1=O) [Ac-Nle-c(Cys-His-D-Phe-Arg-D-Trp-β-Ala-Cys)-NH2] is 0.16

Ki hMC1-R/MC4-R in this record for Ac-FCH[dF]RW[GABA]C-NH2 (disulfide 2-8) [Ac-Phe-c(Cys-His-D-Phe-Arg-Trp-Gaba-Cys)-NH2] : 0.12

Reported Ki hMC1-R/MC4-R ( Ac-[Nle]D[dA]H[dF]R[Bta]K-NH2 (lactam 2-8; SMILES CCCC[C@H](NC(C)=O)C(=O)N[C@H]1CC(=O)NCCCC[C@@H](C(N)=O)NC(=O)[C@H](Cc2csc3ccccc23)NC(=O)[C@H](CCCNC(=N)N)NC(=O)[C@@H](Cc2ccccc2)NC(=O)[C@H](Cc2c[nH]cn2)NC(=O)[C@@H](C)NC1=O) [Ac-Nle-c(Asp-D-Ala-His-D-Phe-Arg-Bal-Lys)-NH2] ) = 0.08

Ac-[Nle]D[dA]H[dF]RWK-NH2 (lactam 2-8; SMILES CCCC[C@H](NC(C)=O)C(=O)N[C@H]1CC(=O)NCCCC[C@@H](C(N)=O)NC(=O)[C@H](Cc2c[nH]c3ccccc23)NC(=O)[C@H](CCCNC(=N)N)NC(=O)[C@@H](Cc2ccccc2)NC(=O)[C@H](Cc2c[nH]cn2)NC(=O)[C@@H](C)NC1=O) [Ac-Nle-c(Asp-D-Ala-His-D-Phe-Arg-Trp-Lys)-NH2] has a reported Ki hMC1-R/MC4-R of 0.26

Entry Ac-[Nle]CH[dF]RW[Ahx]C-NH2 (disulfide 2-8) [Ac-Nle-c(Cys-His-D-Phe-Arg-Trp-Ahx-Cys)-NH2] , Ki hMC1-R/MC4-R reported as 0.11

Ki hMC1-R/MC4-R for Ac-[2Nal]CH[dF]RW[GABA]C-NH2 (disulfide 2-8) [Ac-2-Nal-c(Cys-His-D-Phe-Arg-Trp-Gaba-Cys)-NH2] is 0.19

binder Ac-[Nle]CHFR[dW][GABA]C-NH2 (disulfide 2-8, Phe 4 is the L form here) [Ac-Nle-c(Cys-His-Phe-Arg-D-Trp-Gaba-Cys)-NH2] , Ki hMC1-R/MC4-R observed: 0.04

Note to self: Ki hMC1-R/MC4-R recorded for [Nle]CH[dF]RW[Ava]C-NH2 (disulfide 2-8; N-terminus assumed; SMILES CCCC[C@H](N)C(=O)N[C@H]1CSSC[C@@H](C(N)=O)NC(=O)CCCCNC(=O)[C@H](Cc2c[nH]c3ccccc23)NC(=O)[C@H](CCCNC(=N)N)NC(=O)[C@@H](Cc2ccccc2)NC(=O)[C@H](Cc2c[nH]cn2)NC1=O) [Nle-c(Cys-His-D-Phe-Arg-Trp-Apn-Cys)-NH2] was 0.1

The reported value for Ac-[dR]CH[dF]RW[GABA][Pen]-NH2 (disulfide 2-8; SMILES CC(=O)N[C@H](CCCNC(=N)N)C(=O)N[C@H]1CSSC(C)(C)[C@@H](C(N)=O)NC(=O)CCCNC(=O)[C@H](Cc2c[nH]c3ccccc23)NC(=O)[C@H](CCCNC(=N)N)NC(=O)[C@@H](Cc2ccccc2)NC(=O)[C@H](Cc2c[nH]cn2)NC1=O) [Ac-D-Arg-c(Cys-His-D-Phe-Arg-Trp-Gaba-Pen)-NH2] in terms of Ki hMC1-R/MC4-R is 0.36

Entry Ac-C[dA]H[dF]R[2Nal]AC-NH2 (disulfide 1-8; SMILES CC(=O)N[C@H]1CSSC[C@@H](C(N)=O)NC(=O)[C@H](C)NC(=O)[C@H](Cc2ccc3ccccc3c2)NC(=O)[C@H](CCCNC(=N)N)NC(=O)[C@@H](Cc2ccccc2)NC(=O)[C@H](Cc2c[nH]cn2)NC(=O)[C@@H](C)NC1=O) [Ac-c(Cys-D-Ala-His-D-Phe-Arg-2-Nal-Ala-Cys)-NH2] , Ki hMC1-R/MC4-R reported as 3.24

Per the record, Ac-[Nle]C[dA]H[dF]RWAC-NH2 (disulfide 2-9) [Ac-Nle-c(Cys-D-Ala-His-D-Phe-Arg-Trp-Ala-Cys)-NH2] has Ki hMC1-R/MC4-R of 0.41

Item: Ac-RCH[dF]RW[GABA][Pen]-NH2 (disulfide 2-8; SMILES CC(=O)N[C@@H](CCCNC(=N)N)C(=O)N[C@H]1CSSC(C)(C)[C@@H](C(N)=O)NC(=O)CCCNC(=O)[C@H](Cc2c[nH]c3ccccc23)NC(=O)[C@H](CCCNC(=N)N)NC(=O)[C@@H](Cc2ccccc2)NC(=O)[C@H](Cc2c[nH]cn2)NC1=O) [Ac-Arg-c(Cys-His-D-Phe-Arg-Trp-Gaba-Pen)-NH2] | Ki hMC1-R/MC4-R: 0.4

Record Ac-VCH[dF]RW[GABA]C-NH2 (disulfide 2-8; SMILES CC(=O)N[C@H](C(=O)N[C@H]1CSSC[C@@H](C(N)=O)NC(=O)CCCNC(=O)[C@H](Cc2c[nH]c3ccccc23)NC(=O)[C@H](CCCNC(=N)N)NC(=O)[C@@H](Cc2ccccc2)NC(=O)[C@H](Cc2c[nH]cn2)NC1=O)C(C)C) [Ac-Val-c(Cys-His-D-Phe-Arg-Trp-Gaba-Cys)-NH2] . Reported Ki hMC1-R/MC4-R: 0.13
